ASSAY_TEXT: Cytotoxicity against human HIEC-6 cells assessed as cell viability measured after 48 hrs by MTT assay
OUTCOME_MEASURE: IC50 at 48 h

Req: Query (compound): Cc1ccc(C(C)C)c(/N=N/c2ccc([N+](=O)[O-])cc2)c1O ; field requested: IC50 at 48 h
Resp: 13.4 µg/mL

Req: Query (compound): Cc1cc(O)c(C(C)C)cc1/N=N/c1ccc([N+](=O)[O-])cc1 ; field requested: IC50 at 48 h
Resp: 7.61 µg/mL

* * *

Test system: Helicobacter pylori
ASSAY_TEXT: Anti-bacterial activity against Helicobacter pylori measured after 72 hrs incubation by modified broth dilution method
Type: functional
Task for the reader: assign each of the following compounds its reported MIC50.
# unit: mg/L | format: bare number

Req: Query (compound): COc1cc(C=O)cc(/N=N/c2ccc(Cl)c(Cl)c2)c1O ; field requested: MIC50
Resp: 64

Req: Query (compound): C=CCc1cc(/N=N/c2cccc([N+](=O)[O-])c2)c(O)c(OC)c1 ; field requested: MIC50
Resp: 128

Req: Query (compound): COc1cc(C=O)cc(/N=N/c2cccc(Cl)c2)c1O ; field requested: MIC50
Resp: 128

Req: Query (compound): COc1cccc(C=O)c1O ; field requested: MIC50
Resp: 8

Req: Query (compound): COc1ccc(/N=N/c2cc(C(C)C)c(O)cc2C)cc1 ; field requested: MIC50
Resp: 4

Req: Query (compound): COc1cc(C=O)cc(/N=N/c2ccc(C#N)cc2)c1O ; field requested: MIC50
Resp: 8

Req: Query (compound): Cc1ccc(C(C)C)cc1O [CARVACROL] ; field requested: MIC50
Resp: 64

Req: Query (compound): C=CCc1cc(/N=N/c2ccccc2C)c(O)c(OC)c1 ; field requested: MIC50
Resp: 64

Req: Query (compound): CC(=O)Oc1cc(C)c(/N=N/c2ccc([N+](=O)[O-])cc2)cc1C(C)C ; field requested: MIC50
Resp: 128

Entry source: ChEMBL document CHEMBL6109036
